Reference source: patent US11491109B2

METHOD NOTES: Drug solubility in water (aqueous solubility)
Type: physicochemical
DETAILS: thermodynamic from solid, 24 h incubation, pH not adjusted, read-out: Solubility in water (standard deviation, n = 3)
Provide the recorded solubility at 24 h for the entries that follow.

Kindly indicate its recorded solubility at 24 h. Item: OC(c1cc(C(F)(F)F)nc2c(C(F)(F)F)cccc12)C1CCCCN1 (stereo not shown)
63 µg/mL

Specify measured solubility at 24 h for C(=C\c1ccccc1)/CN1CCN(C(c2ccccc2)c2ccccc2)CC1 .
1 µg/mL

# return recorded solubility at 24 h for entry CC(C)(C)c1ccc(C(O)CCCN2CCC(C(O)(c3ccccc3)c3ccccc3)CC2)cc1 (stereo not shown)
2 µg/mL

Fill in reported solubility at 24 h for this entry: O=c1[nH]c2ccccc2n1C1CCN(CCCC(c2ccc(F)cc2)c2ccc(F)cc2)CC1 [PMZ, Pimozide]
2 µg/mL
